Sourced from the supplement of paper PMC10567573

B1: FEM1B (parent)
chain: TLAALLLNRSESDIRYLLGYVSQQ

# Variants of: B1
# TEST_SUMMARY: protein stability index of a GFP-peptide fusion (GPS, HEK-293T) (PSI 1-6); higher = more stable;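 further: lentivirally expressed fusions sorted by FACS into six bins by GFP to DsRed ratio, PSI derived from sequencing read proportions per bin multiplied by bin number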
# EXPERIMENTAL_SETUP: c terminus: a fixed tail appended
REPORTED_ENDPOINT: protein stability index

VARIANT_DESCRIPTION	REPORTED_ENDPOINT	RECORDED_MEASUREMENT
L7C	protein stability index	2.03
R15H	protein stability index	2.4
S22T	protein stability index	2.5
S12M	protein stability index	2.33
L6I	protein stability index	2.88
D13C	protein stability index	3.94
Q23I	protein stability index	2.75
L5T	protein stability index	2.71
Y16D	protein stability index	2.38
R15A	protein stability index	2.31
L7H	protein stability index	1.7
A3W	protein stability index	2.38
L2G	protein stability index	2.11
Q23Y	protein stability index	2.1
Q24A	protein stability index	2.5
L17V	protein stability index	2.98
L6S	protein stability index	1.82
S12D	protein stability index	2.71
L5V	protein stability index	3.12
Y20G	protein stability index	2.25
R9Q	protein stability index	1.96
I14L	protein stability index	2.7
R9F	protein stability index	2.9
Q23E	protein stability index	3.21
